Biological target: His-tagged LC3B-T50E (human, UniProt Q9GZQ8 1-120, T50E)
Test: BLI
pKd: −log10 of the molar value.
Observable: pKd

> print(dat)
                                     binder  observed.value
1  GQGANTDYRPPDDAVFDIITDEELCQIQESGSSL [FYCO1 peptide (1265–1298 amino acids of the human protein)]           ~4.55

Where do the numbers come from? From paper PMC8439105.
